- measured-on: Kras and SOS1 (biotin-tagged human Kras loaded with GDP, His-tagged human SOS1) (Homo sapiens, UniProt P01116, G12D)
- Construct: made in house; host or cells: E. coli (stated for Kras only)
- Sequence (P01116 1-188 isoform P01116-2 G12D): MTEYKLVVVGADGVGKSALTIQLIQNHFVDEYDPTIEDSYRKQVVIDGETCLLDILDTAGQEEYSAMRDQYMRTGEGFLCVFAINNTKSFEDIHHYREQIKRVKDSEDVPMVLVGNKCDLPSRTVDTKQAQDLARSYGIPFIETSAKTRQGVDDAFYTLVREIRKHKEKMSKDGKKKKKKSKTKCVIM
- protocol-summary: Protein-protein interaction inhibition between Kras and SOS1 (KrasGl2D-SOS PPI) using AlphaScreen
- Format: binding
- measurement-parameters: AlphaScreen; biotin-tagged human Kras loaded with GDP, His-tagged human SOS1; read-out: KRAS G12D-SOS PPI IC50
Positions of bridges follow the written chain, without caps; N, C: chain ends. Non-standard residues stand in square brackets, D forms with d. Residues, ends and D or L forms follow the SMILES beside them. *: point of attachment. hPhe(3,5-F2-4-CF3) = N[C@@H](CCc1cc(F)c(C(F)(F)F)c(F)c1)C(=O)O; hPhe(3-Cl-4-CF3) = N[C@@H](CCc1ccc(C(F)(F)F)c(Cl)c1)C(=O)O; NEtPhe(4-Me) = CCN[C@@H](Cc1ccc(C)cc1)C(=O)O; NMePhe(3-F) = CN[C@@H](Cc1cccc(F)c1)C(=O)O; NMePhe(2-F) = CN[C@@H](Cc1ccccc1F)C(=O)O; NMeGly(cPent) = CN[C@H](C(=O)O)C1CCCC1; Phe(3-I) = N[C@@H](Cc1cccc(I)c1)C(=O)O; NMeCha = CN[C@@H](CC1CCCCC1)C(=O)O; N(CH2CH2)2CF2 = FC1(F)CCN(*)CC1; NMeD = CN[C@@H](CC(=O)O)C(=O)O; NMeL = CN[C@@H](CC(C)C)C(=O)O; NMeV = CN[C@H](C(=O)O)C(C)C; d(β3hA) = C[C@@H](N)CC(=O)O; Morpholide = C1CN(*)CCO1; NMeA = CN[C@@H](C)C(=O)O; NMeAib = CNC(C)(C)C(=O)O; Nle = CCCC[C@H](N)C(=O)O; Piperidide = C1CCN(*)CC1; dNMeA = CN[C@H](C)C(=O)O; Ac5c = NC1(C(=O)O)CCCC1; Aze = O=C(O)[C@@H]1CCN1; Ac4c = NC1(C(=O)O)CCC1; Sar = CNCC(=O)O
readout-name: IC50
Reply with the number, then its unit.

Example entries begin here.
compound="CC[C@H](C)[C@@H]1NC(=O)[C@H](C)N(C)C(=O)C[C@@H](C)NC(=O)[C@H](C2CCCC2)N(C)C(=O)C2(CCCC2)NC(=O)[C@@H]2CCCN2C(=O)[C@H](CCc2ccc(C(F)(F)F)c(Cl)c2)NC(=O)[C@@H](C)N(C)C(=O)[C@H](Cc2cccc(F)c2)N(C)C(=O)CN(C)C(=O)CN(C)C1=O [Compound 830] (cyclo([Ac5c][NMeGly(cPent)][d(β3hA)][NMeA]I[Sar][Sar][NMePhe(3-F)][dNMeA][hPhe(3-Cl-4-CF3)]P))" data_value="280 nM"
compound="CCCC[C@@H]1NC(=O)[C@H](Cc2cccc(I)c2)NC(=O)CN(C)C(=O)[C@H](CC2CCCCC2)N(C)C(=O)CN(C)C(=O)CN(C)C(=O)[C@H]([C@@H](C)CC)NC(=O)[C@H](CC(C)C)N(C)C(=O)C[C@@H](C(=O)N2CCCCC2)N(C)C(=O)[C@H](CC(C)C)NC(=O)C(C)(C)N(C)C1=O [Compound 1416] ([NMeL]I[Sar][Sar][NMeCha][Sar][Phe(3-I)][Nle][NMeAib]L[NMeD]-Piperidide; lactam N-11)" data_value="97 nM"
compound="CC[C@H](C)[C@@H]1NC(=O)[C@H](CC(C)C)N(C)C(=O)C[C@@H](C(=O)N2CCCCC2)N(C)C(=O)[C@H](C(C)C)N(C)C(=O)C2(CCC2)NC(=O)[C@H](CC(=O)N2CCC(F)(F)CC2)N(C)C(=O)[C@H](CCc2ccc(C(F)(F)F)c(Cl)c2)NC(=O)CN(C)C(=O)[C@H](CC2CCCCC2)N(C)C(=O)CN(C)C(=O)CN(C)C1=O [Compound 251] ([NMeL]I[Sar][Sar][NMeCha][Sar][hPhe(3-Cl-4-CF3)][NMeD](N(CH2CH2)2CF2)[Ac4c][NMeV][NMeD]-Piperidide; lactam N-11)" data_value="3.8 nM"
compound="CC[C@H](C)[C@@H]1NC(=O)[C@H](CC(C)C)N(C)C(=O)C[C@@H](C(=O)N2CCOCC2)N(C)C(=O)[C@H](C2CCCC2)N(C)C(=O)C2(CCCC2)NC(=O)[C@@H]2CCCN2C(=O)[C@H](CCc2cc(F)c(C(F)(F)F)c(F)c2)NC(=O)CN(C)C(=O)[C@H](Cc2ccc(C)cc2)N(CC)C(=O)[C@@H]2CCN2C(=O)[C@H](C)N(C)C1=O [Compound 1368] ([NMeL]I[NMeA][Aze][NEtPhe(4-Me)][Sar][hPhe(3,5-F2-4-CF3)]P[Ac5c][NMeGly(cPent)][NMeD]-Morpholide; lactam N-11)" data_value="0.67 nM"

// IC50 value for CC[C@H](C)[C@@H]1NC(=O)[C@H](CC(C)C)N(C)C(=O)C[C@@H](C(=O)N2CCCCC2)N(C)C(=O)[C@H](C(C)C)N(C)C(=O)C2(CCCC2)NC(=O)[C@@H]2CCCN2C(=O)[C@H](CCc2ccc(C(F)(F)F)c(Cl)c2)NC(=O)CN(C)C(=O)[C@H](Cc2ccccc2F)N(C)C(=O)CN(C)C(=O)CN(C)C1=O [Compound 1583] ([NMeL]I[Sar][Sar][NMePhe(2-F)][Sar][hPhe(3-Cl-4-CF3)]P[Ac5c][NMeV][NMeD]-Piperidide; lactam N-11) : 12 nM
